Just for reference, patent US9745291B2 is where these values come from.

Target: PRMT5/MEP50 (Homo sapiens (Human))
Experiment: PRMT5 Biochemical Assay (PRMT5/MEP50 enzyme assay on peptide substrate, 3H-SAM Flashplate)
Settings: PRMT5 biochemical assay; read-out: Biochemical IC50
pIC50: −log10 of the molar value.

- COMPOUND: "CC1CN(C)CCN1S(=O)(=O)c1ccccc1OCC(=O)NC[C@@H](O)CN1CCc2ccccc2C1 (some centres unmarked)"
  pIC50: "6.00 to 7.00"
- COMPOUND: "Cc1cn(C)c2cccc(OCC(=O)NCC(O)CN3CCc4ccccc4C3)c12 (centres unmarked)"
  pIC50: "> 7.00"
- COMPOUND: "CN1CCOc2cccc(OCC(=O)NCC(O)CN3CCc4ccccc4C3)c21 (centres unmarked)"
  pIC50: "> 7.00"
- COMPOUND: "CC(NC(=O)COc1ccccc1S(N)(=O)=O)C(O)CN1CCc2ccccc2C1 (centres unmarked)"
  pIC50: "> 7.00"
- COMPOUND: "CC1CN(c2cccc(OCC(=O)NC[C@@H](O)CN3CCc4ccccc4C3)c2S(=O)(=O)N(C)C)CCN1 (some centres unmarked)"
  pIC50: "> 7.00"
- COMPOUND: "O=C(COc1ccccc1OCCN1CCOCC1)NC[C@H](O)CN1CCc2ccccc2C1"
  pIC50: "> 7.00"
- COMPOUND: "O=C(COc1ccccc1[C@@H]1CCCNC1)NC[C@@H](O)CN1CCc2ccccc2C1"
  pIC50: "6.00 to 7.00"
- COMPOUND: "CN(CC1CNC1)S(=O)(=O)c1ccccc1OCC(=O)NC[C@@H](O)CN1CCc2ccccc2C1"
  pIC50: "> 7.00"

---

Target: PRMT5/MEP50 (Homo sapiens (Human), UniProt O14744)
Sequence (O14744 other isoform, or with tags, fused parts or gaps): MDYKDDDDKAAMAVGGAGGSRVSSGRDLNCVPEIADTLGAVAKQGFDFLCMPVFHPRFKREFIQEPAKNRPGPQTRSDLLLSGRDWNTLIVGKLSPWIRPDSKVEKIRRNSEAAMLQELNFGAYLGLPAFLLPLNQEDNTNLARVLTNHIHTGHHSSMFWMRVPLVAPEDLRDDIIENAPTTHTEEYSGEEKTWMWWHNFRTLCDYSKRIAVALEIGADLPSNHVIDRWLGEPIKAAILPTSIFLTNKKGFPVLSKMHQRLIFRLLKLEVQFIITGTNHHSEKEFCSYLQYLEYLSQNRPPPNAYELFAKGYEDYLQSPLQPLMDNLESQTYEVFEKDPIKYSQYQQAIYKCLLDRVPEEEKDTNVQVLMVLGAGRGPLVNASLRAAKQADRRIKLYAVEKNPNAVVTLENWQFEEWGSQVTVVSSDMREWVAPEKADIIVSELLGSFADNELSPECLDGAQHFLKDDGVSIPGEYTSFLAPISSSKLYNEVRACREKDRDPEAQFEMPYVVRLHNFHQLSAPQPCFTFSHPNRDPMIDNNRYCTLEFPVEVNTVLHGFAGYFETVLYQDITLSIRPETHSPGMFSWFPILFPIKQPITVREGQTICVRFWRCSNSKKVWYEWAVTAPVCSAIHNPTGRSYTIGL
Sequence (Q9BQA1 other isoform, or with tags, fused parts or gaps partner): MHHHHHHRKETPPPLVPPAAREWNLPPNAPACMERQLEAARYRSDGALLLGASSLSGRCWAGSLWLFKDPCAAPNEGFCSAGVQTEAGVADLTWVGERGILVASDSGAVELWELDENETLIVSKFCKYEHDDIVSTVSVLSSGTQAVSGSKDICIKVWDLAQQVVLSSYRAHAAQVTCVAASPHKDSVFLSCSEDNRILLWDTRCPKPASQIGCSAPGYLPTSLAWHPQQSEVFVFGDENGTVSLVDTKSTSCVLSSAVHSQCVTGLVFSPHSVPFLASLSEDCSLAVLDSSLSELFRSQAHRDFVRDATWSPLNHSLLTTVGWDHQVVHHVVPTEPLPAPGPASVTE
Assay: PRMT5 Biochemical Assay (PRMT5/MEP50 enzyme assay on peptide substrate, 3H-SAM Flashplate)
Settings: PRMT5 biochemical assay; read-out: Biochemical IC50
From the text: S-adenosylmethionine (SAM), S-adenosylhomocysteine (SAH), bicine, KCl, Tween20, dimethylsulfoxide (DMSO), bovine skin gelatin (BSG), and Tris(2-carboxyethyl)phosphine hydrochloride solution (TCEP) were purchased from Sigma-Aldrich at the highest level of purity possible. ^3H-SAM was purchase from American Radiolabeled Chemicals with a specific activity of 80 Ci/mmol. 384-well streptavidin Flashplates were purchased from PerkinElmer. […]
Documented IC50 across a set of compounds
VALUE KIND: IC50

- COMPOUND: "CN(C)C1CCN(S(=O)(=O)c2ccccc2OCC(=O)NC[C@@H](O)CN2CCc3ccccc3C2)C1 (some centres unmarked)"
  RESULT: "< 100 nM"
- COMPOUND: "CC(=O)N1CCN(c2ccccc2OCC(=O)NCC(O)CN2CCc3ccccc3C2)CC1 (centres unmarked)"
  RESULT: "< 100 nM"
- COMPOUND: "Cn1cnc(-c2cccc(OCC(=O)NC[C@@H](O)CN3CCc4ccccc4C3)c2)c1"
  RESULT: "101 to 1000 nM"
- COMPOUND: "O=C(COc1ccccc1N1CCOCC1)NCC(O)CN1CCc2ccccc2C1 (centres unmarked)"
  RESULT: "< 100 nM"
- COMPOUND: "O=C(COc1cccc2c1CCCC2)NCC(O)CN1CCc2ccccc2C1 (centres unmarked)"
  RESULT: "< 100 nM"
- COMPOUND: "CN(CCN1CCCCC1)S(=O)(=O)c1ccccc1OCC(=O)NC[C@@H](O)CN1CCc2ccccc2C1"
  RESULT: "< 100 nM"
- COMPOUND: "CN(CC1CCNC1)S(=O)(=O)c1ccccc1OCC(=O)NC[C@@H](O)CN1CCc2ccccc2C1 (some centres unmarked) [Compound 220]"
  RESULT: "< 100 nM"
- COMPOUND: "O=C(COc1ccccc1S(=O)(=O)N1CCCC1)NCC(O)CN1CCc2ccccc2C1 (centres unmarked)"
  RESULT: "< 100 nM"
- COMPOUND: "CN(C)c1ccccc1OCC(=O)NCC(O)CN1CCc2ccccc2C1 (centres unmarked)"
  RESULT: "< 100 nM"
- COMPOUND: "CN(C)C1CN(S(=O)(=O)c2ccccc2OCC(=O)NC[C@@H](O)CN2CCc3ccccc3C2)CC1O (some centres unmarked)"
  RESULT: "101 to 1000 nM"
- COMPOUND: "CC(=O)Nc1cccnc1OCC(=O)NCC(O)CN1CCc2ccccc2C1 (centres unmarked)"
  RESULT: "> 50000 nM"
- COMPOUND: "CNCCN(C)S(=O)(=O)c1ccccc1OCC(=O)NC[C@@H](O)CN1CCc2ccccc2C1"
  RESULT: "< 100 nM"
- COMPOUND: "CN(c1ccccc1OCC(=O)NCC(O)CN1CCc2ccccc2C1)S(C)(=O)=O (centres unmarked)"
  RESULT: "< 100 nM"
- COMPOUND: "O=C(COc1cccc(-n2ccnc2)c1)NC[C@@H](O)CN1CCc2ccccc2C1"
  RESULT: "101 to 1000 nM"
- COMPOUND: "O=C(CCc1nc(-c2ccccc2)c[nH]1)NC[C@H](O)CN1CCc2ccccc2C1"
  RESULT: "< 100 nM"
- COMPOUND: "CN1CC[C@@H](CN(C)S(=O)(=O)c2ccccc2OCC(=O)NC[C@@H](O)CN2CCc3ccccc3C2)C1"
  RESULT: "< 100 nM"
- COMPOUND: "O=C(CCc1nc2cc(Cl)ccc2[nH]1)NC[C@H](O)CN1CCc2ccccc2C1"
  RESULT: "< 100 nM"
